All figures here come from the supplement of paper PMC10567573.

B1: PBXIP1 (parent)
chain: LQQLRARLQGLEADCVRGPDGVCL

- Variants of: B1
- Test protocol: protein stability index of a GFP-peptide fusion (GPS, HEK-293T) (PSI 1-6); higher = more stable;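 also: lentivirally expressed fusions sorted by FACS into six bins by GFP to DsRed ratio, PSI derived from sequencing read proportions per bin multiplied by bin number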
- Run parameters: c terminus: a fixed tail appended
Measurement name: protein stability index
Format: numeric value only, no unit, no commentary.

>  <Variant identifier>
E12Q

>  <Measurement name>
protein stability index

>  <Reported result>
2.26

$$$$

INPUT: Which measured protein stability index value corresponds to L11G ?
OUTPUT: 4.24

INPUT: Same question, R5M this time
OUTPUT: 1.84

INPUT: Further, for C15W ?
OUTPUT: 2

INPUT: Then what about the variant L11R ?
OUTPUT: 2.88

INPUT: Quick one: Q2G
OUTPUT: 2.38

INPUT: Follow-up item: V16E
OUTPUT: 3.21
